Experimental Protocol: Quantitative High-Throughput drug screen in 47 multiple myeloma cell lines against the NCATS MIPE library collection: PCM6_Riken cell viability assay (AID 1919870); note: nearly all actives have a fitted effect of over 30% in size
Condition Summary: CellTiter-Glo ATP, 48 h; series mostly up to 45.8 µM
Results filed as inconclusive are left out. Active and inactive are the calls of the source. Calls come from the whole dose curve; as a rule, active = well fitted cell-killing curve with a large enough effect; inconclusive = small, poorly fitted or top-dose-only effect, or effect the other way; inactive = no such curve, though single readings can be large or run the other way.
Your response should consist of one outcome taken from yes (1) = active, no (0) = inactive

Recorded results for 2 compounds are shown here.
What call does the record list for C=C1CCC2[C@](C)(CO)C(O)CC[C@]2(C)C1CC=C1C(=O)OCC1O (stereo not given in full) ?
no (0)

I would be grateful if you could indicate the recorded call for O=C(Nc1cc2cc[nH]c2cn1)c1ccccc1 .
yes (1)

Others:
Query: recorded result category for CC(=O)N[C@@H]1[C@H](O[C@@H]2c3ccc(c(Cl)c3)Oc3cc4cc(c3O[C@H]3O[C@H](CO)[C@@H](O)[C@H](O)[C@H]3NC(=O)CCCCCCCC(C)C)Oc3ccc(cc3Cl)C[C@H]3NC(=O)[C@H](N)c5ccc(O)c(c5)Oc5cc(O)cc(c5)[C@H](NC3=O)C(=O)N[C@H]4C(=O)N[C@H]3C(=O)N[C@@H]2C(=O)N[C@@H](C(=O)O)c2cc(O)cc(O[C@H]4O[C@H](CO)[C@@H](O)[C@H](O)[C@H]4O)c2-c2cc3ccc2O)O[C@H](CO)[C@@H](O)[C@@H]1O in this test
no (0)

How did this test come out for C=C1C(=O)O[C@H]2[C@@H]1CCC(C)=CCC[C@@]1(C)O[C@@H]21 ?
yes (1)

Answer briefly: the call reported for Nc1ncn([C@@H]2O[C@H](CO)[C@@H](O)[C@@H]2O)c(=O)n1 in this assay.
yes (1)

Recorded test call requested for CC(=O)OC[C@@H]1O[C@@H](n2ccc(=O)[nH]c2=O)[C@H](OC(C)=O)[C@H]1OC(C)=O
no (0)

What is the recorded call for this compound in the test? OCc1ccccc1O[C@@H]1O[C@H](CO)[C@H](O)[C@H](O)[C@H]1O
no (0)

Hello, I am checking results. What call was entered for OC[C@@H](O)[C@@H](O)[C@H](O)[C@@H](O)CO ?
no (0)

---

Experimental Protocol: Quantitative High-Throughput drug screen in 47 multiple myeloma cell lines against the NCATS MIPE library collection: ARP1_JJKsccF8 cell viability assay (AID 1918928; note: potency is the fitted concentration of half-maximal effect; nearly all actives have a fitted effect of over 40% in size)
Condition Summary: ARP1 myeloma cells viability, CellTiter-Glo ATP, 48 h; series mostly up to 45.8 µM
Inconclusive results are not listed. Active and inactive are the calls of the source. Calls follow the shape of the dose curve; as a rule, active = well fitted cell-killing curve with a large enough effect; inconclusive = small, poorly fitted or top-dose-only effect, or effect the other way; inactive = no such curve, though single readings can be large or run the other way.
Form field: Potency (one value per entry).

Look at this compound and give its reported Potency. Nc1nc(N)c2nc(-c3cccc(O)c3)c(-c3cccc(O)c3)nc2n1
20900 nM (active)

Bench note: what Potency did Oc1ccc(-c2ccc(-c3cc(Nc4cccc(CNC5CC5)c4)n[nH]3)cc2)c(O)c1 show?
4180 nM (active)

# Potency lookup, item C=CC(=O)N1CCc2ccc(-n3c(=O)ccc4cnc5ccc(-c6cnn(C)c6)cc5c43)cc21
1050 nM (active)

I'd like to know its Potency. The compound in question is CC(=O)ON=C1C(c2c(O)[nH]c3cc(Br)ccc23)=Nc2ccccc21
10500 nM (active)

Can you look up the measured Potency of C=CC(=O)Nc1cccc(Nc2nc(NC3CCC(N(C)C)CC3)nc3c2ncn3C(C)C)c1 (stereo not drawn) for me?
743 nM (active)

Request the reported Potency associated with CC(=O)[C@]1(O)Cc2c(O)c3c(c(O)c2[C@@H](O[C@H]2C[C@H](N)[C@@H](O)[C@H](C)O2)C1)C(=O)c1ccccc1C3=O
264 nM (active)

Others:
Can you share its Potency? I mean this compound: COc1cc([C@@H]2c3cc4c(cc3[C@H](O)[C@H]3COC(=O)[C@@H]23)OCO4)cc(OC)c1OC
52.6 nM (active)

Quick check: Potency of C=CC[C@@H]1C=C(C)C[C@H](C)C[C@H](OC)[C@H]2O[C@@](O)(C(=O)C(=O)N3CCCC[C@H]3C(=O)O[C@H](C(C)=C[C@@H]3CC[C@H](O)[C@H](OC)C3)[C@@H](C)[C@@H](O)CC1=O)[C@@H](C)C[C@@H]2OC ?
2090 nM (active)
